systemUnderTest: recombinant human HDAC6 (Homo sapiens (Human), UniProt Q9UBN7)
Sequence (Q9UBN7 whole entry): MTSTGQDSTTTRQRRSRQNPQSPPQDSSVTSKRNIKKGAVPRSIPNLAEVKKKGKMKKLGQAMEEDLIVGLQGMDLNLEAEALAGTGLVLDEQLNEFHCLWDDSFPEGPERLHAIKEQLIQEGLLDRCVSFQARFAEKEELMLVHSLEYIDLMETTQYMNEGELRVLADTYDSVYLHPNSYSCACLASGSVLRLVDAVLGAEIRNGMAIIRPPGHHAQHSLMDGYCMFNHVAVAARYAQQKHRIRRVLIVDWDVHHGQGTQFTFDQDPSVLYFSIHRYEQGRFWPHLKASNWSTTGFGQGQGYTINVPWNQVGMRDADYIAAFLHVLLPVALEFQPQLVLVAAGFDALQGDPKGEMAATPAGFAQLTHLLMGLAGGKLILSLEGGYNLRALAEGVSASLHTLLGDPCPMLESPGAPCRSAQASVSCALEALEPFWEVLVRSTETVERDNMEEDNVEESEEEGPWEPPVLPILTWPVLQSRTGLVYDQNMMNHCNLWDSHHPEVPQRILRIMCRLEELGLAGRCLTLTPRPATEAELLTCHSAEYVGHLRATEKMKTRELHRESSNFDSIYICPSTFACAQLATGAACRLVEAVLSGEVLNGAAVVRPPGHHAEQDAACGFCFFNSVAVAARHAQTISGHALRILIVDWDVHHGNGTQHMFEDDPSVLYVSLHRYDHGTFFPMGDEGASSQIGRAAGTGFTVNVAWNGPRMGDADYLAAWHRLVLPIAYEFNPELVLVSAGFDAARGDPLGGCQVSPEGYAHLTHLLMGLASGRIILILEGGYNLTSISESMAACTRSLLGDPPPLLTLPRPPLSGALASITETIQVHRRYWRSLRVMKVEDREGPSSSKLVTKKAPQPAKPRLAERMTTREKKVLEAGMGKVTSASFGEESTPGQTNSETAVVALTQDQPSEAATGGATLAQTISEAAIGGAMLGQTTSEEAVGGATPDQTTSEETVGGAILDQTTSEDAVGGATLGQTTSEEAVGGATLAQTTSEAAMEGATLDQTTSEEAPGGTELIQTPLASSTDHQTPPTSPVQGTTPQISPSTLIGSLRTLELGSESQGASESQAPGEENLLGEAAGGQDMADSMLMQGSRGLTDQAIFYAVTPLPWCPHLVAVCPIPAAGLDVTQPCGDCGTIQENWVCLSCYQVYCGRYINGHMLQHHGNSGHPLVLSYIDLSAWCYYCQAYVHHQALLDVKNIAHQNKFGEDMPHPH
protocolDetails: Enzymatic screening, HDAC6 inhibition (fluorogenic FdL_G substrate)
Protocol: For each test compound, 100× concentrated DMSO solutions at 8 doses were prepared and then diluted in assay buffer (25 mM Tris-HCl, pH 8, 130 mM NaCl, 0.05% Tween-20, 10% Glycerol) to obtain 5× concentrated solutions in relation to the final concentrations (typical final concentration range—6.4-200000 nM or 0.18-50000 nM, final DMSO content—1%). […]
measurementKind: IC50 (nM)

compound	systemUnderTest	unitsText	observedMeasurement
Cn1c(N)nc2cc(-c3cn(Cc4ccc(-c5nnc(C(F)F)o5)c(F)c4F)nn3)ccc21 [compound 345]	recombinant human HDAC6 (Homo sapiens (Human), UniProt Q9UBN7)	nM	24
Nc1ncc2cc(-c3nnn(Cc4ccc(-c5nnc(C(F)F)o5)cc4F)n3)ccc2n1 [compound 424]	recombinant human HDAC6 (Homo sapiens (Human), UniProt Q9UBN7)	nM	76

A: Cn1c(N)nc2cc(-c3nnn(Cc4ncc(-c5nnc(C(F)F)o5)cc4F)n3)ccc21 [compound 370]
B: Nc1ncc2cc(-c3nnn(Cc4ccc(-c5nnc(C(F)F)o5)cc4Cl)n3)ccc2n1 [compound 425]
Data request: Sorting by IC50 in descending order, would A or B appear first? Bench note: the answer is the label of the chosen record.
Data returned: B
(B: 545 nM, A: 23 nM)

----------
systemUnderTest: recombinant human HDAC1 (Homo sapiens (Human), UniProt Q13547)
Sequence (Q13547 whole entry): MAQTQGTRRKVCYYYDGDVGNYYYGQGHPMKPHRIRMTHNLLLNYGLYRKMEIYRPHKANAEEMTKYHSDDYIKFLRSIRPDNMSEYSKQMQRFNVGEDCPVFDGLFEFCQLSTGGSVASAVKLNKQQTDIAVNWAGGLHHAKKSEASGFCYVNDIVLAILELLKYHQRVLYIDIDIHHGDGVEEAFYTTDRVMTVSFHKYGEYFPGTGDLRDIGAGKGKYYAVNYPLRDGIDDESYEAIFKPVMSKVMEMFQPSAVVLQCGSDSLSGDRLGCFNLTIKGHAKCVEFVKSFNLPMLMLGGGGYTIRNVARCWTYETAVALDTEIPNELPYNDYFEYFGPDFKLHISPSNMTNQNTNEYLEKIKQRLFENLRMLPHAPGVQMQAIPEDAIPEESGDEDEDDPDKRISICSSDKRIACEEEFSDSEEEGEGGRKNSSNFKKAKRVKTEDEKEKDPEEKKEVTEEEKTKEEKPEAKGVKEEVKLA
protocolDetails: Enzymatic screening, HDAC1 inhibition (fluorogenic FdL_G substrate)
pIC50: −log10 of the molar value.
measurementKind: pIC50

molecule	observedMeasurement
O=C1Nc2cc(-c3cn(Cc4ccc(-c5nnc(C(F)F)o5)cc4)nn3)ccc2C12CCNCC2	< 3.70
CN(C)C(=O)c1cccc(-c2nnn(Cc3ccc(-c4nnc(C(F)F)o4)cc3)n2)c1	< 3.70
CC(C)(C)OC(=O)N1CCC2(CC1)Nc1cc(-c3cn(Cc4ccc(-c5nnc(C(F)F)o5)cc4)nn3)ccc1NC2=O	< 3.70
CCCCC(c1ccc(-c2nnc(C(F)F)o2)cc1)n1cc(-c2ccc(N)nc2)nn1 (stereo not shown)	< 3.70
CCNc1ccc2cc(-c3nnn(Cc4ccc(-c5nnc(C(F)F)o5)c(F)c4)n3)ccc2n1	3.00
Nc1nc2ccc(-c3cn(Cc4ccc(-c5nnc(C(F)F)o5)cc4F)nn3)cc2s1	< 3.00

Data request: Which pIC50 is listed for FC(F)c1nnc(-c2ccc(Cn3cc(-c4ccccc4)nn3)cc2)o1 ?
Data returned: < 3.70

Data request: Which pIC50 is listed for Nc1cncc(-c2nnn(Cc3ccc(-c4nnc(C(F)F)o4)cc3)n2)c1 ?
Data returned: < 3.70

Data request: Which pIC50 is listed for Cn1c(N)nc2cc(-c3nnn(Cc4ccc(-c5nnc(C(F)F)o5)c(F)c4F)n3)ccc21 ?
Data returned: < 3.00

Data request: Which pIC50 is listed for Nc1ccc(-n2cc(Cc3ccc(-c4nnc(C(F)F)o4)cc3)nn2)cc1 ?
Data returned: < 3.00

Data request: Which pIC50 is listed for CCNC(=O)c1cccc(-c2nnn(Cc3ccc(-c4nnc(C(F)F)o4)cc3)n2)c1 ?
Data returned: < 3.70

Data request: Which pIC50 is listed for Nc1ccc(-c2cn(C(CC3CCC3)c3ccc(-c4nnc(C(F)F)o4)cc3)nn2)cn1 (stereo not shown) ?
Data returned: < 3.70

Data request: Which pIC50 is listed for FC(F)c1nnc(-c2ccc(Cn3cc(-c4ccc5nc(N6CCCC6)[nH]c5c4)nn3)cc2)o1 ?
Data returned: < 3.70

Data request: Which pIC50 is listed for Cn1c(N)nc2cc(-c3cn(Cc4ccc(-c5nnc(C(F)F)o5)cc4)cn3)ccc21 ?
Data returned: < 3.00

Data request: Which pIC50 is listed for Nc1ccc(-c2cn(C(CN3CCCC3)c3ccc(-c4nnc(C(F)F)o4)cn3)nn2)cn1 (stereo not shown) ?
Data returned: < 3.70

Data request: Which pIC50 is listed for O=C(Nc1cccc(-c2nc(Cc3c(F)cc(-c4nnc(C(F)F)o4)cc3F)no2)c1)N1CCOCC1 ?
Data returned: < 3.70
